Pulverized particle size, 95% cumulative diameter values, listed per item
test: Pulverized particle size by image analysis; type: physicochemical
Write down the numeric answer in μm and omit the unit.

Please review the following examples before continuing.
Cc1nc(-c2ccc(OCC(C)C)c(C#N)c2)sc1C(=O)O [Particle 3] : 74.7
Cc1nc(-c2ccc(OCC(C)C)c(C#N)c2)sc1C(=O)O [Particle 4] : 140.8
Cc1nc(-c2ccc(OCC(C)C)c(C#N)c2)sc1C(=O)O [Particle 2] : 29.5

Here is the next item to consider.
Quick one: Pulverized particle size, 95% cumulative diameter for Cc1nc(-c2ccc(OCC(C)C)c(C#N)c2)sc1C(=O)O [Particle 1] ?
5.6

All figures here come from patent US7361676B2.
